Data origin, for the record: patent US12297235B2

assay: Solubility in water; format: physicochemical; settings: Table 7, PEGylated and Sar/Ala substitution peptides
Square brackets hold non-standard residues; d marks the D form. Peptide text beside a SMILES is read from it. Sar = CNCC(=O)O
OBSERVED_PROPERTY: Solubility in water

COMPOUND | RESULT
CC[C@H](C)[C@H](N)C(=O)N[C@@H](C)C(=O)N[C@@H](CC(C)C)C(=O)N[C@H](C(=O)N[C@@H](CC(C)C)C(=O)N[C@@H](CCC(=O)O)C(=O)N1CCC[C@H]1C(=O)N[C@H](C(=O)N[C@@H](CS)C(=O)N[C@@H](CS)C(=O)N[C@@H](CCC(N)=O)C(=O)N[C@@H](CCC(=O)O)C(=O)N[C@@H](CCCNC(=N)N)C(=O)N[C@@H](C)C(=O)N[C@@H](C)C(=O)NCCOCCOCCOCCOCCOCCOCCOCCOCCOCCOCCOCCOCCOCCOCCOCCOCCOCCOCCOCCOCCOCCOCCOCCOCCC(=O)O)[C@@H](C)CC)[C@@H](C)CC [PA-dPEG24] | Yes
CC[C@H](C)[C@H](N)C(=O)N[C@@H](C)C(=O)N[C@@H](CC(C)C)C(=O)N[C@H](C(=O)N[C@@H](CC(C)C)C(=O)N[C@@H](C)C(=O)N(C)CC(=O)N[C@H](C(=O)N[C@@H](CS)C(=O)N[C@@H](CS)C(=O)N[C@@H](CCC(N)=O)C(=O)N[C@@H](C)C(=O)N[C@@H](CCCNC(=N)N)C(=O)N[C@@H](C)C(=O)N[C@@H](C)C(=O)O)[C@@H](C)CC)[C@@H](C)CC [Peptide E6AE12AP7Sar] (H-IALILA[Sar]ICCQARAA-OH; N-terminus and C-terminus assumed) | Yes
